B1: SOAT1 (parent)
chain: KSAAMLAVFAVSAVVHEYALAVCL

# Variants of: B1
# Test Summary: protein stability index of a GFP-peptide fusion (GPS, HEK-293T) (PSI 1-6); higher = more stable;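 also: lentivirally expressed fusions sorted by FACS into six bins by GFP to DsRed ratio, PSI derived from sequencing read proportions per bin multiplied by bin number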
# Applied Conditions: c terminus: a fixed tail appended
Form field: protein stability index (one value per entry).
Readout: protein stability index

KSAAMLAVFAVSAVRHEYALAVCL 1.83
KSAAMLAVWAVSAVVHEYALAVCL 3.01
KSAAMLWVFAVSAVVHEYALAVCL 2.69
KSAAMLAVFAVSKVVHEYALAVCL 1.37
KSAAMLAVFAVSAVVHEYANAVCL 4.2
KSAAMLAVFAVSAVVHEYALAVCD 3.9
KSAAMLAVFARSAVVHEYALAVCL 2.94
KSAAMLAVFADSAVVHEYALAVCL 3.09
KSAAMLAVFAVQAVVHEYALAVCL 3.61
KSAAMLAVFAVSAVVHEYALNVCL 3.11
KSAAMLAWFAVSAVVHEYALAVCL 3.01
KSAAMLAVFAVSAFVHEYALAVCL 1.91
KSAAMLQVFAVSAVVHEYALAVCL 2.59
KSAAMLAVFAVSAVVHCYALAVCL 2.5
KSAAMLAVFAVSAVVHEYAKAVCL 2.58
KSAAMLAKFAVSAVVHEYALAVCL 2.31
KSAAMLADFAVSAVVHEYALAVCL 2.77
KSAAMLAVFAVSAVVHEDALAVCL 2.21
KSAWMLAVFAVSAVVHEYALAVCL 1.72
KSAVMLAVFAVSAVVHEYALAVCL 3.08
KSAAMLAPFAVSAVVHEYALAVCL 3.28
KSAAMLAVFAVRAVVHEYALAVCL 2.11
KSAAMLAVFAVSAVVHEYALAVCY 1.98
KSAAMLAVFAVSAVVHEYALAVSL 3.48
